Target: PDK-1 (Homo sapiens, UniProt O15530)
Sequence (O15530 whole entry): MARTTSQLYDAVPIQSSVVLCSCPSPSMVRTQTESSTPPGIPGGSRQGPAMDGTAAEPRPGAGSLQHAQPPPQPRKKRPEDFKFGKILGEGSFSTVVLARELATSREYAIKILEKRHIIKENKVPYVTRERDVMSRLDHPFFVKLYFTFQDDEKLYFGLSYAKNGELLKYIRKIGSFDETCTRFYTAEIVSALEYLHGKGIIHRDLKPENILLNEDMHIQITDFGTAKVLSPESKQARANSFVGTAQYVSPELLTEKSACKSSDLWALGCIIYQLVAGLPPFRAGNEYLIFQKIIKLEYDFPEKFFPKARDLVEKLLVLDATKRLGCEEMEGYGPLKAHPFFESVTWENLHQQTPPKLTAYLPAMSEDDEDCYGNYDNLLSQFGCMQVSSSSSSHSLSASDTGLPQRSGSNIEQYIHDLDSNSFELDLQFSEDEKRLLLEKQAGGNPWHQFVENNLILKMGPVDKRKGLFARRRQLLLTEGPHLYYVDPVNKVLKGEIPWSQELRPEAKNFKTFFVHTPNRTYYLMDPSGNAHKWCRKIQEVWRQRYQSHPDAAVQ
Test: PDK-1 kinase inhibition ELISA assay (phosphorylation of His6-tagged SGK1 S422D by PDK-1)
Assay type: biochemical
Settings: PDK-1 ELISA, Table 11; read-out: Average IC50
# pIC50 per entry
In plain terms, pIC50 is the concentration in mol/L turned into minus its base-10 logarithm.

Could you please provide reported pIC50 for COc1cc2ncc3c(N)nc(-c4cncn4C)cc3c2cc1OC ? Thanks!
7.18

Look up pIC50 of COc1cc2ncc3c(N)nc(-c4cncc(CCC(C)(C)N)c4)cc3c2cc1OC and report it.
7.54

Provide only the value of recorded pIC50 for CCOc1cc2ncc3c(N)nc(-n4ccnc4)cc3c2cc1NC(C)=O
6.41

Next:
# return recorded pIC50 for entry COc1cc2ncc3c(N)nc(-c4cncc(OC[C@@H](N)CN5CCCC5)c4)cc3c2cc1OC
7.85

For the compound COc1cc2c(cc1OCCCN1CCOCC1)ncc1c(N)nc(-n3ccnc3)cc12 , report pIC50.
6.77

Dear colleague, please send me the reported pIC50 for COc1cc2ncc3c(N)nc(-c4cncc(OC[C@@H](N)CN(C)S(=O)(=O)c5ccccc5)c4)cc3c2cc1OC when you can.
7.96

Provide pIC50 value for the following compound: COc1cc2ncc3c(N)nc(-c4cncc(Nc5ccccn5)c4)cc3c2cc1OC
6.32

Retrieve pIC50 measured for COc1cc2ncc3c(N)nc(-c4cncc(OC[C@@H](N)CN5CCC[C@H]5c5nccs5)c4)cc3c2cc1OC and print it.
8.00

Provide only the value of recorded pIC50 for COc1cc2c(cc1OCCCN1CCN(C)CC1)ncc1c(N)nc(-n3ccnc3)cc12
6.45

Return pIC50 (reported value) for this compound: COc1cc2ncc3c(N)nc(-c4cncc(OC[C@@H](N)CNc5ccc(F)c(Cl)c5)c4)cc3c2cc1OC
8.30

Return the recorded pIC50 value; entry: COc1cc2c(cc1O)ncc1c(N)nc(-n3ccnc3)cc12
7.05

In one line, give reported pIC50 of the entry COCCOc1cc2ncc3c(N)nc(N4CCOCC4)cc3c2cc1OC .
5.19

Provide measured pIC50 value, entry: COCCOc1cc2ncc3c(N)nc(N4CCC(O)CC4)cc3c2cc1OC
5.69

Quote pIC50 reported for COc1cc2ncc3c(N)nc(-c4cncc(OC[C@@H](N)COc5ncccn5)c4)cc3c2cc1OC please.
8.15

Please supply the value of reported pIC50 for the item CC[C@H](N)COc1cncc(-c2cc3c(cnc4cc(OC)c(OC)cc43)c(N)n2)c1
8.22

Give the reported value of pIC50 for this record: COc1cc2ncc3c(N)nc(-c4cncc(OC[C@@H](N)CNC(C)(C)Cc5ccc(F)cc5)c4)cc3c2cc1OC
7.92

Answer with reported pIC50 of COc1cc2ncc3c(N)nc(-c4cncc(O[C@@H]5CCCNC5)c4)cc3c2cc1OC
8.10

---

IC50 reference
Biological target: PDK-1 (Homo sapiens)
Test: PDK-1 kinase inhibition ELISA assay (phosphorylation of His6-tagged SGK1 S422D by PDK-1)
Assay type: biochemical
Details: PDK-1 ELISA, Table 11; read-out: Average IC50
The reply should contain only the number, in nM.

Consider the compound COCCN(C)C[C@H](N)COc1cncc(-c2cc3c(cnc4cc(OC)c(OC)cc43)c(N)n2)c1 and give its recorded IC50.
9

Note IC50 for the compound shown: COc1cc2ncc3c(N)nc(-c4cncc(OCCN)c4)cc3c2cc1OC
5

Please give measured IC50 of the following entry: COc1cc2ncc3c(N)nc(-c4cncc(OC[C@@H](N)Cc5ccc(OCc6ccccc6)cc5)c4)cc3c2cc1OC
212

Read off the recorded IC50 for COc1cc2ncc3c(N)nc(-c4cncc(OC[C@@H](N)COc5ccc(F)c(F)c5)c4)cc3c2cc1OC
7

Look up and report measured IC50 for this entry: COc1cc2ncc3c(N)nc(N(C)Cc4cccnc4)cc3c2cc1OC
3580

Determine its reported IC50: COc1cc2ncc3c(N)nc(-c4ccc5[nH]ncc5c4)cc3c2cc1OC
205
